experiment: Comparative formulation tests, physical stability (Tables 32a-c, 33a-c); format: physicochemical; conditions: NB 144-18, ~0.4% Asc + ~0.4% NAC; LDAA TFA salt/CD formulation; Day 1, room temperature
Where a name gives a salt, the structure may show the parent alone. Non-standard residues stand in square brackets, D forms with d. Residues, ends and D or L forms follow the SMILES beside them. Dopa = N[C@@H](Cc1ccc(O)c(O)c1)C(=O)O
PROPERTY MEASURED: Physical stability (visual), Day 1

Solved cases (4 shown):
N=C(N)NCCC[C@H](NC(=O)[C@@H](N)Cc1ccc(O)c(O)c1)C(=O)O [LD-Arg TFA salt, Levodopa Arginine TFA Salt] | Stable
NCCCC[C@H](NC(=O)[C@@H](N)Cc1ccc(O)c(O)c1)C(=O)O [LD-Lys TFA salt, Levodopa Lysine TFA Salt] (H-[Dopa]-Lys-OH) | Stable
N[C@@H](Cc1ccc(O)c(O)c1)C(=O)N[C@@H](Cc1ccc(O)cc1)C(=O)O [LD-Tyr TFA salt, Levodopa Tyrosine TFA Salt] (H-[Dopa]-Tyr-OH) | Stable
N[C@@H](Cc1ccc(O)c(O)c1)C(=O)N[C@@H](Cc1c[nH]c2ccccc12)C(=O)O [LD-Trp TFA salt, Levodopa Tryptophan] (H-[Dopa]-Trp-OH) | Stable

Read the next record carefully.
Input line: Would you kindly share the measured Physical stability (visual), Day 1 for N[C@@H](Cc1ccc(O)c(O)c1)C(=O)N[C@@H](CC(=O)O)C(=O)O [LD-Asp TFA salt, Levodopa Aspartic Acid] (H-[Dopa]-Asp-OH) ?
Output line: Stable

====

Quick reference: Papp B→A at 40 min, 10 μM of the listed items.
test: in vitro; conditions: human, Caco-2, pH 7.4, Permeability 2nd
Where a name gives a salt, the structure may show the parent alone. Non-standard residues stand in square brackets, D forms with d. Residues, ends and D or L forms follow the SMILES beside them. Dopa = N[C@@H](Cc1ccc(O)c(O)c1)C(=O)O
Supply the numeric figure in ×10⁻⁶ cm/s, leaving out any unit text.

Input line: Would you kindly share the measured Papp B→A at 40 min, 10 μM for NCCCC[C@H](NC(=O)[C@@H](N)Cc1ccc(O)c(O)c1)C(=O)O [LD-Lys TFA salt, Levodopa Lysine TFA Salt] (H-[Dopa]-Lys-OH) ?
Output line: 0.03

Input line: Would you kindly share the measured Papp B→A at 40 min, 10 μM for N[C@@H](Cc1ccc(O)c(O)c1)C(=O)O [LD (control), L-3,4-dihydroxyphenylalanine, reference compound] ?
Output line: 0.41

Input line: Would you kindly share the measured Papp B→A at 40 min, 10 μM for NC(=O)CC[C@H](NC(=O)[C@@H](N)Cc1ccc(O)c(O)c1)C(=O)O [LD-Gln TFA salt, Levodopa Glutamine TFA Salt] (H-[Dopa]-Gln-OH) ?
Output line: 0.79

Input line: Would you kindly share the measured Papp B→A at 40 min, 10 μM for N[C@@H](CSC[C@@H](NC(=O)[C@@H](N)Cc1ccc(O)c(O)c1)C(=O)O)C(=O)O (single isomer, unassigned; peak 1) [LD-LA1 TFA salt, Levodopa Lanthionine Peak 1 TFA Salt] ?
Output line: 0.22

Input line: Would you kindly share the measured Papp B→A at 40 min, 10 μM for N[C@@H](Cc1ccc(O)c(O)c1)C(=O)NCC(=O)O [LD-Gly TFA salt, Levodopa Glycine TFA Salt] ?
Output line: 0.33
